# System: MOLT-4
# assay_explanation: MTT cytotoxicity, 72 h
# Type: cell-based, human
# measurement_conditions: Homo sapiens, MOLT-4, 72 h of incubation
experimental_endpoint: pIC50
Expect pIC50 as a plain number equal to -log10 of the molar concentration.

Any idea what pIC50 was measured for COc1cccc2c1C(=O)c1c(O)c3c(c(O)c1C2=O)C[C@@](O)(C(=O)CO)C[C@@H]3O[C@H]1C[C@H](N)[C@H](O)[C@H](C)O1 [Doxo, doxorubicin, reference compound] ?
6.14

Any idea what pIC50 was measured for CC(C)(C)c1ccc(C=NNC(N)=O)cc1 [Compound 3h, 4-Tert-Butylbenzaldehyde Semicarbazone] ?
4.59

Any idea what pIC50 was measured for NC(=O)NN=Cc1ccc(Br)cc1 [Compound 3d, 4-Bromobenzaldehyde Semicarbazone] ?
4.43

Any idea what pIC50 was measured for Cc1ccc(C=NNC(N)=O)cc1 [Compound 3g, 4-Methylbenzaldehyde Semicarbazone] ?
4.25

Any idea what pIC50 was measured for CCCCN(N=Cc1ccc([N+](=O)[O-])o1)C(N)=O [Compound 4a] ?
4.71

Any idea what pIC50 was measured for NC(=O)N/N=C/c1c(O)ccc2ccccc12 [Compound 3c, 2-Hydroxynaphthaldehyde Semicarbazone] ?
4.39
